- study-target: T1, human Nectin-4 protein (human, UniProt Q96NY8 32-349)
- T1 construct: Purified protein used for coating in ELISA and as analyte in Octet; also called human Nectin-4 antigen
- T1 sequence (looked up): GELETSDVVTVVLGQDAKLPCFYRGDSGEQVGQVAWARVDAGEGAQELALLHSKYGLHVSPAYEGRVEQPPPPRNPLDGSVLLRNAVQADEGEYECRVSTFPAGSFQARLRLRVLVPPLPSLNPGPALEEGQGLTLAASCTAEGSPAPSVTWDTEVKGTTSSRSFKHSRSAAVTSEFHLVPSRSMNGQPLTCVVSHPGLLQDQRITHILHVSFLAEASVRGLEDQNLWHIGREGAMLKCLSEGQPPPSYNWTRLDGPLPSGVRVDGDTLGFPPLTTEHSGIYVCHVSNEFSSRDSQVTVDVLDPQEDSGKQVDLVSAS
- assay-explanation: BLI (Octet Fortebio), antibody on ProA sensor, Nectin-4 as analyte, 1:1 global fit
property-measured: Kd (nM)
Your answer is read as nM, so omit the unit and give the number.

Request: Please indicate Kd recorded for anti-human Nectin-4 humanized monoclonal antibody 74HZ (antibody, human IgG1, kappa, V domains shown, Human IgG1 heavy chain constant region, human kappa light chain constant region; expressed in CHO-E cells) VH: QVQLVQSGAEVKKPGSSVKVSCKASGYTFINYWMNWVRQAPGQGLEWIGMIHPSDSATRLNQSFQGRVTLTVDKSTSTAYMELSSLRSEDTAVYYCARWGNFYTVNAWYYFDYWGQGTLVTVSS VL: DIVITQSPDSLAVSLGERATINCKSSQTLLNSNTQKNYLAWYQQKPGQSPKLLFYFASTRESGVPDRFSGSGSGTDFTLTISSLQAEDVAVYFCQQHYSTPLTFGQGTKLEIKR
Result: 12.1
